# Protocol Details: Partition coefficient,logP of compound by reversed-phase HPLC analysis
# Format: physicochemical
# Settings: octanol/water
Field: label. Allowed values: y (logP < 6) or n (logP >= 6).

Reference set (8 entries):
Request: Please indicate whether the reported logP of `CCCCCCCCc1ccc(OCC(=O)Cn2cc(CCC(=O)O)c(C(=O)C(C)C)c2)cc1` is strictly below 6.
Result: n

Request: Please indicate whether the reported logP of CCCCCCCCc1ccc(OC(C)C(=O)Cn2cc(CCC(=O)O)c(-c3nc(C)no3)c2)cc1 (stereo unspecified) is strictly below 6.
Result: n

Request: Please indicate whether the reported logP of Cc1noc(-c2cn(CC(=O)C(C)Oc3ccc(Oc4ccc(F)cc4)cc3)cc2CCC(=O)O)n1 (stereo unspecified) is strictly below 6.
Result: y

Request: Please indicate whether the reported logP of Cc1noc(-c2cn(CC(=O)C(C)Oc3ccc(Oc4ccc(C(F)(F)F)cc4)cc3)cc2CCC(=O)O)n1 (stereo unspecified) is strictly below 6.
Result: y

Request: Please indicate whether the reported logP of `CC(C)C(=O)c1cn(CC(=O)COc2ccc3c(ccn3-c3ccc(F)cc3)c2)cc1CCC(=O)O` is strictly below 6.
Result: y

Request: Please indicate whether the reported logP of Cc1noc(-c2cn(CC(=O)C(C)Oc3ccc(Oc4ccc(Cl)cc4)cc3)cc2CCC(=O)O)n1 (stereo unspecified) is strictly below 6.
Result: y

Request: Please indicate whether the reported logP of `CC(C)C(=O)c1cn(CC(=O)COc2ccc(-c3ccc(C(F)(F)F)cc3)cc2)cc1CCC(=O)O` is strictly below 6.
Result: y

Request: Please indicate whether the reported logP of `CC(C)C(=O)c1cn(CC(=O)COc2ccc(C34CC5CC(CC(C5)C3)C4)cc2)cc1CCC(=O)O` is strictly below 6.
Result: y

***
Request: Please indicate whether the reported logP of `CC(C)C(=O)c1cn(CC(=O)COc2ccc(Oc3ccc(C(F)(F)F)cc3)cc2)cc1CCC(=O)O` is strictly below 6.
Result: y
